The measurements presented in this section are drawn from PubChem BioAssay.

Assay: TLR3 IRF3 reporter activation blockers – cell-based, poly I:C stimulus, luciferase, 10K MLSCN set, primary screen (AID 602277)
Details: HEK293-TLR3 RL24 IRF3 luciferase reporter, at 10 µM, stronger effect = higher value

MOLECULE	inhibition / %
COc1cccc(C(=O)Nc2ccc(NC(=O)C(C)(C)C)cn2)c1	21.1
CCn1cc(C(=O)NCc2ccccc2OC)c(=O)c2cc(S(=O)(=O)N(C)C)ccc21	23.7
Cc1[nH]nc2c1C(C1CC=CCC1)C(C#N)=C(N)O2 (stereo not given)	40.2
O=C(Cc1c[nH]c2ccccc12)N1CCc2ccccc21	-44.5
C=CS(=O)(=O)c1ccc(Oc2ccc(S(=O)(=O)C=C)cc2)cc1	98.2
CCOC(=O)c1ccc(NC(=O)CCNc2c(N3CCCC3)c(=O)c2=O)cc1	10.6
CC1=C(C(N)=O)C(c2ccccn2)n2nc(-c3ccccc3Cl)nc2N1 (stereo not given)	17.2
O=C(Cn1cccc1C(=O)c1ccccc1)NCCN1CCOCC1	12.8
COc1ccc2[nH]c(=O)c(CN(CCO)S(=O)(=O)c3ccc4c(c3)OCCO4)cc2c1	11.8
Cc1nc(C)n(C(C)CC(=O)O)n1 (stereo not given)	7.13
O=C(Nc1ccc2c(c1)OCO2)N1CCN(c2ncccn2)CC1	-41.5
C/C(Cl)=C\Cn1c(Nc2ccc(C)cc2)nc2c1c(=O)n(C)c(=O)n2C	17.5
CCc1c(C(=O)Nc2cc(C)ccc2OC)[nH]c(C)c1C(C)=O	27.6
COc1ccc(C)cc1NC(=O)c1nc2nc(C)cc(C)n2n1	9.03
CC(OC(=O)c1cccc(NS(C)(=O)=O)c1)C(=O)Nc1ccc(N2CCOCC2)cc1 (stereo not given)	-7.05
CCC1(CC)C(=O)N(C)C(=O)NC1=NCc1ccccc1	12.1
C#CCSc1nc(-c2cccs2)ccc1C#N	5.18
CN(Cc1cccs1)CC(O)COCc1ccco1 (stereo not given)	23.9
COc1ccc(-c2noc(C3CCCN(C(=O)CCc4ccccc4)C3)n2)cc1 (stereo not given)	1.57
O=C(Nc1ccc(F)cc1)N(Cc1ccco1)Cc1cc2cc3c(cc2[nH]c1=O)OCO3	-15.6
O=c1cc(CSc2nnnn2-c2ccccc2)nc2scc(-c3ccccc3)n12	12
O=C(NCCN1CCCCCC1)c1ccc(N2CCCC2=O)cc1	17.9
CCOC(=O)c1cccc(NC(=O)CSc2nc3ccccc3c(=O)n2CC)c1	18.3
CCOC(=O)c1ccc2[nH]c3c(c2c1)CCCCC3=O	-77.8
COc1ccccc1C(=O)N1CCN(CCc2ccccc2)CC1	0.325
COc1ccc(-c2nnc(SC(C)C(=O)Nc3nccs3)n2-c2ccccc2)cc1OC (stereo not given)	-2.92
COc1ccccc1Nc1nc(N)nc(CSc2nccc(C)n2)n1	5.69
Cc1cc(C(=O)COc2cccc3cccnc23)c(C)n1C	-68
CC(=O)Nc1ccc(NC(=O)Cn2cnc3c(cnn3C(C)(C)C)c2=O)cc1	2.5
CN(CC(=O)Nc1cccnc1)S(=O)(=O)c1cc(Cl)ccc1Cl	-13.1
O=C(Oc1ccc(Cl)cc1N1C(=O)CCC1=O)c1ccco1	31.5
Cc1onc(-c2ccccc2Cl)c1C(=O)Nc1cccc(-c2cn3cccnc3n2)c1	1.48
CCOc1cc(N2CCOCC2)c(OCC)cc1NC(=O)CSc1cccc[n+]1[O-]	18.2
CC(=O)OCC(=O)c1ccc2ccn(C(C)=O)c2c1	-8.58
Cc1ccc(S(=O)(=O)CC(=O)N2CCCCCC2)cc1	-15.4
NS(=O)(=O)c1ccc(NC(=O)CSc2nnc(Cc3cccs3)n2-c2ccccc2)cc1	21.4
COc1ccc(C2C(C(=O)c3sc(C)nc3C)=C(O)C(=O)N2CCN(C)C)cc1 (stereo not given)	9.69
Cc1ccc(-c2nnn(CC(=O)N(CC3CCCO3)C(C(=O)NC(C)(C)C)c3ccc(F)cc3)n2)o1 (stereo not given)	15.3
N#CCC(=O)Nc1ncn(Cc2ccccc2Cl)n1	4.42
COc1ccc(NC(=O)C2Cc3ccccc3C(=O)O2)cc1 (stereo not given)	-23.5
O=C(N1CCN(c2ccccc2F)CC1)C12CC3CC(CC(C3)C1)C2	14.4
Cc1ccc(S(=O)(=O)N2CCCC2C(=O)n2nc(C)cc2C)cc1 (stereo not given)	19.1
CSc1c(CC(=O)NCCO)n(C)c2ccccc12	5.52
CC(C(=O)Nc1ccccc1-c1ccccc1)N1CCN(C(=O)c2ccco2)CC1 (stereo not given)	33.6
Cc1cnc(NC(=O)CSc2nnc(-c3ccccc3)n2Cc2ccccc2)s1	-7.1
